system: firefly luciferase gene expression in HEK 293 cells; test: Firefly luciferase assay of HEK 293 cells transfected with splicing / Intron-Exon-Intron constructs (no ligand); format: cell-based
Each entry below lists one item and its recorded fold lower luciferase expression compared with Con 1 value.
value_kind: fold lower luciferase expression compared with Con 1 (fold)

# molecule, experimental_value
records = [
    ("DHFR_Con15ss: DHFR exon 2 with 5′ss from Con 1; SEQ ID NO: 49 (nucleic acid, expressed or natural sequence) DNA: GAGTAACGCTGTTTCTCTAACTTGTAGGAATGAATTCAGATATTTCCAGAGAATGACCACAACCTCTTCAGTAGAGGGTGAGTTG", 545),
    ("DHFR_wtStrSC35: DHFR exon 2 with stronger SC35 binding site; SEQ ID NO: 52 (nucleic acid, expressed or natural sequence) DNA: GAGTAACGCTGTTTCTCTAACTTGTAGGAATGGCCCCTGATATTTCCAGAGAATGACCACAACCTCTTCAGTAGAAGGTAATGTG", 139),
    ("DHFR_wt: Con 1 with wild type human DHFR exon 2, native 5′ss; SEQ ID NO: 47 (nucleic acid, expressed or natural sequence) DNA: GAGTAACGCTGTTTCTCTAACTTGTAGGAATGAATTCAGATATTTCCAGAGAATGACCACAACCTCTTCAGTAGAAGGTAATGTG", 116),
]
